Target: the molecule itself
Assay: ITC dilution
measureName: pKd
Just the number, please; pKd means minus log10 of the concentration in mol/L.

Looking up HPrbs (histidine phosphocarrier protein) (protein) MKTQQFTVIDPLGIHARPASQLVAKATPFASAIEVRTEEKAANLKSILGVMGLALKQGSQFTLYVEGEDEDQAFEALATLLTEMGLAQ , I see its pKd listed as 5.19
